# Tested on: BJeLR
# assay-overview: Modulatory profiling: Alamar Blue viability, lethal compound cotreated with death modulator (EC50, AUC)
# Assay type: cell-based, human
# applied-conditions: BJeLR cells; lethal compound cotreated with modulator NMMA; modulatory profile value (AUC)
Categories are defined by ranges of AUC, modulator BJ.NMMA, namely low: < -0.02; mid: ≥ -0.02 and < 0.003; high: ≥ 0.003

For orientation, consider the following solved cases.
[N-]=[N+]=[N-].[Na+]    high
CCCCNc1cc(C)nc(NCc2ccccc2)n1    low
CC(C)(C)C1CCc2c(sc(NC(=O)CN3CCNCC3)c2C(N)=O)C1 (stereo not shown)    high
C[S+]([O-])c1nc(-c2ccc(Br)cc2)cc(-c2ccccc2)c1C#N (stereo not shown)    mid
O=[N+]([O-])c1ccc(O)c([N+](=O)[O-])c1    low
COc1c2c(cc3c1C(CC(=O)/C=C/c1ccccc1)[N+](C)(C)CC3)OCO2 (stereo not shown)    low
C[C@@H]1C[C@@H]([C@H](O)CC2CC(=O)NC(=O)C2)C(=O)[C@@H](C)C1 [cycloheximide, Cycloheximide, reference compound]    mid
CC[C@@]1(O)C(=O)OCc2c1cc1n(c2=O)Cc2cc3ccccc3nc2-1    mid
CC(C)[C@@H]1NC(=O)[C@H](C)OC(=O)[C@@H](C(C)C)NC(=O)[C@@H](C(C)C)OC(=O)[C@H](C(C)C)NC(=O)[C@H](C)OC(=O)[C@@H](C(C)C)NC(=O)[C@@H](C(C)C)OC(=O)[C@H](C(C)C)NC(=O)[C@H](C)OC(=O)[C@@H](C(C)C)NC(=O)[C@@H](C(C)C)OC1=O    low
C=C(C)[C@H]1Cc2c(ccc3c2O[C@@H]2COc4cc(OC)c(OC)cc4[C@@H]2C3=O)O1    high

Quick check: band for CC(C)C[C@H](NC(=O)[C@H](CC(C)C)NC(=O)[C@H](CC(C)C)NC(=O)OCc1ccccc1)B(O)O
mid

Input CN(C)CCCOS(=O)(=O)c1ccc(N2CCC(c3ccc(Cl)cc3)=N2)cc1 ; output its category
high

Using the reported AUC, modulator BJ.NMMA, which band applies to COC(=O)c1[nH]c2ccc(Br)cc2c1NC(=O)CN1CCN(C2CCCCC2)CC1 ?
mid

Class for CN(C)CC(O)Cn1c2ccc(Cl)cc2c2cc(Cl)ccc21 (stereo not shown) ?
low

Where would CC1=CC(C)(C)Nc2ccc(OC(=O)c3cccnc3)cc21 land among the classes by reported AUC, modulator BJ.NMMA?
high

====

AUC, modulator BJ.Co2+: recorded values
# Tested on: BJeLR
# assay-overview: Modulatory profiling: Alamar Blue viability, lethal compound cotreated with death modulator (EC50, AUC)
# Type: cell-based, human
# Set-up: unit not given beside the values
# applied-conditions: BJeLR cells; lethal compound cotreated with modulator Co2+; modulatory profile value (AUC)
# answer = number (no unit)

Below, each entry is followed by its recorded AUC, modulator BJ.Co2+ result.
O=C(CCl)N(c1ccccc1)c1c[nH]c2ccccc12    0.1724
C[C@@H]1C[C@@H]([C@H](O)CC2CC(=O)NC(=O)C2)C(=O)[C@@H](C)C1 [cycloheximide, Cycloheximide, reference compound]    0.2375
O=C(CCl)N(c1ccc(Cl)cc1)c1c[nH]c2ccccc12    0.2049

Give its AUC, modulator BJ.Co2+ value. Item: CC(/C=C/C(=O)NO)=C\[C@@H](C)C(=O)c1ccc(N(C)C)cc1
0.3091

====

# Tested on: HT-1080
# assay-overview: Modulatory profiling: Alamar Blue viability, lethal compound cotreated with death modulator (EC50, AUC)
# Format: cell-based
# applied-conditions: HT-1080, modulator Gd3+
Mark 1.0 only when AUC HT.Gd3+ stays strictly below -0.01. Values equal to the cut-off are 0.0.

Answered cases to consult:
CCCCS(=O)(=O)/C=C\C=C/S(=O)(=O)CCCC [CIL49]    0.0
CN(C)CC(O)Cn1c2ccc(Cl)cc2c2cc(Cl)ccc21 (stereo not shown) [CIL5]    1.0

AUC HT.Gd3+ under -0.01? Item: O=C(CCl)N(c1ccc(Cl)cc1)c1c[nH]c2ccccc12 [CIL75]
1.0

Dear reviewer, please state whether COc1cccc2c1C(=O)c1c(O)c3c(c(O)c1C2=O)C[C@@](O)(C(C)=O)C[C@@H]3O[C@H]1C[C@H](N)[C@H](O)[C@H](C)O1 [Daunorubicin] has AUC HT.Gd3+ strictly beneath -0.01.
0.0

Strictly below -0.01: is that where AUC HT.Gd3+ of CCCCNc1cc(C)nc(NCc2ccccc2)n1 [CIL18] sits?
1.0

====

Listed here: items and their measured AUC, modulator BJ.Nec-1.
# System: BJeLR
# assay-overview: Modulatory profiling: Alamar Blue viability, lethal compound cotreated with death modulator (EC50, AUC)
# Assay type: cell-based, human
# Design: unit not given beside the values
# applied-conditions: BJeLR cells; lethal compound cotreated with modulator Nec-1; modulatory profile value (AUC)

Below, each entry is followed by its recorded AUC, modulator BJ.Nec-1 result.
Cc1cccc(-n2ncc(Cl)c(Cl)c2=O)c1    −0.01633
COc1cc([C@@H]2c3cc4c(cc3[C@H](O)[C@H]3COC(=O)[C@H]23)OCO4)cc(OC)c1OC    −0.04167
COc1ccc(Nc2ccc3c(c2)=NC2(CCCCC2)[N+]=3[O-])cc1    0.02689
CC(C)=CCCC1=CCC(CNCCCN(C)C)C(C)C1 (centres unmarked)    0.005737

Data request, read-out AUC, modulator BJ.Nec-1, for O=C1c2ccccc2-c2onc3ccc(Oc4ccccc4)c1c23
0.01237

====

# Test system: HT-1080
# assay-overview: Modulatory profiling: Alamar Blue viability, lethal compound cotreated with death modulator (EC50, AUC)
# Assay type: cell-based
# applied-conditions: HT-1080, modulator LNAME
So basically: AUC HT.LNAME at -0.02 or higher? That is class 1. Lower than -0.02? That is class 0.

As a guide, the following entries are already answered.
O=C(CCCCCN1C(=O)c2cccc3cccc(c23)C1=O)NO [Scriptaid]    class 1
CC(C)(C)C1CCc2c(sc(NC(=O)CN3CCNCC3)c2C(N)=O)C1 (centres unmarked) [CIL10]    class 1
CC(C(NNC(=O)c1ccc(C(F)(F)F)cc1)c1ccc(Br)cc1)[N+](=O)[O-] (centres unmarked) [CIL87]    class 1
CC[C@@]1(O)C(=O)OCc2c1cc1n(c2=O)Cc2cc3ccccc3nc2-1 [Camptothecin]    class 1
COc1ccc(-n2nnnc2S(=O)(=O)CC(=O)N2CCCCC2)cc1 [CIL48]    class 0
CC(C)[C@@H]1NC(=O)[C@H](C)OC(=O)[C@@H](C(C)C)NC(=O)[C@@H](C(C)C)OC(=O)[C@H](C(C)C)NC(=O)[C@H](C)OC(=O)[C@@H](C(C)C)NC(=O)[C@@H](C(C)C)OC(=O)[C@H](C(C)C)NC(=O)[C@H](C)OC(=O)[C@@H](C(C)C)NC(=O)[C@@H](C(C)C)OC1=O [Vatinomycin]    class 0

Say whether O=C1C(Cl)=C(N2CCOCC2)C(=O)C(Cl)=C1N1CCOCC1 [CIL11] shows AUC HT.LNAME of -0.02 or more.
class 1

I'd appreciate it if you could say whether [O-][N+]1=c2ccc(Nc3ccccc3)cc2=NC12CCCCC2 [CIL66] has AUC HT.LNAME at least equal to -0.02.
class 1

// inclusive: AUC HT.LNAME at least -0.02? input: COC(=O)[C@@H]1Cc2c([nH]c3ccccc23)C(C)(C)N1C(=O)CCl [CIL79]
class 1

====

# Test system: BJeLR
# assay-overview: Modulatory profiling: Alamar Blue viability, lethal compound cotreated with death modulator (EC50, AUC)
# Assay type: cell-based, human
# Design: unit not given beside the values
# applied-conditions: BJeLR cells; lethal compound cotreated with modulator Nec-1; modulatory profile value (AUC)
Criterion: AUC, modulator BJ.Nec-1 strictly under 0.04. Met: yes. Not met: no.

// known answers, use as guide
CC[C@]1(O)C[C@@H]2CN(CCc3c([nH]c4ccccc34)[C@@](C(=O)OC)(c3cc4c(cc3OC)N(C)[C@H]3[C@@](O)(C(=O)OC)[C@H](OC(C)=O)[C@]5(CC)C=CCN6CC[C@]43[C@@H]65)C2)C1 [Vinbiastine]    yes
COc1cccc2c1C(=O)c1c(O)c3c(c(O)c1C2=O)C[C@@](O)(C(=O)CO)C[C@@H]3O[C@H]1C[C@H](N)[C@H](O)[C@H](C)O1 [Doxorubicin]    yes
CC(C)(C)C1CCc2c(sc(NC(=O)CN3CCNCC3)c2C(N)=O)C1 (stereo not shown) [CIL10]    no
C[C@@H]1C[C@@H]([C@H](O)CC2CC(=O)NC(=O)C2)C(=O)[C@@H](C)C1 [cycloheximide, Cycloheximide, reference compound]    yes
CC(C)[C@@H]1NC(=O)[C@H](C)OC(=O)[C@@H](C(C)C)NC(=O)[C@@H](C(C)C)OC(=O)[C@H](C(C)C)NC(=O)[C@H](C)OC(=O)[C@@H](C(C)C)NC(=O)[C@@H](C(C)C)OC(=O)[C@H](C(C)C)NC(=O)[C@H](C)OC(=O)[C@@H](C(C)C)NC(=O)[C@@H](C(C)C)OC1=O [Vatinomycin]    yes
O=C(Oc1ccc(Cl)c2cccnc12)c1ccco1 [CIL58]    no
COc1ccccc1/C=C/C1(C(=O)NC2CCCC2)CC(=O)N1c1ccc(F)cc1 (stereo not shown) [CIL1]    no
C=CCC1(Cl)C(=O)C(Cl)=C(n2ccnc2)C1(OC)OC (stereo not shown) [CIL76]    yes

// switching to the query molecule
Strictly below 0.04 in AUC, modulator BJ.Nec-1? CC1(C)CC(=O)C2=C(C1)OC1=C(C(=O)CC(C)(C)C1)C2c1ccc(O)cc1O [CIL62]
no
